- target or system: human calcium receptor (Homo sapiens, UniProt P41180, R990G)
- Construct: expressed in transfected cells; host or cells: HEK 293
- Sequence (P41180 20-1078 R990G): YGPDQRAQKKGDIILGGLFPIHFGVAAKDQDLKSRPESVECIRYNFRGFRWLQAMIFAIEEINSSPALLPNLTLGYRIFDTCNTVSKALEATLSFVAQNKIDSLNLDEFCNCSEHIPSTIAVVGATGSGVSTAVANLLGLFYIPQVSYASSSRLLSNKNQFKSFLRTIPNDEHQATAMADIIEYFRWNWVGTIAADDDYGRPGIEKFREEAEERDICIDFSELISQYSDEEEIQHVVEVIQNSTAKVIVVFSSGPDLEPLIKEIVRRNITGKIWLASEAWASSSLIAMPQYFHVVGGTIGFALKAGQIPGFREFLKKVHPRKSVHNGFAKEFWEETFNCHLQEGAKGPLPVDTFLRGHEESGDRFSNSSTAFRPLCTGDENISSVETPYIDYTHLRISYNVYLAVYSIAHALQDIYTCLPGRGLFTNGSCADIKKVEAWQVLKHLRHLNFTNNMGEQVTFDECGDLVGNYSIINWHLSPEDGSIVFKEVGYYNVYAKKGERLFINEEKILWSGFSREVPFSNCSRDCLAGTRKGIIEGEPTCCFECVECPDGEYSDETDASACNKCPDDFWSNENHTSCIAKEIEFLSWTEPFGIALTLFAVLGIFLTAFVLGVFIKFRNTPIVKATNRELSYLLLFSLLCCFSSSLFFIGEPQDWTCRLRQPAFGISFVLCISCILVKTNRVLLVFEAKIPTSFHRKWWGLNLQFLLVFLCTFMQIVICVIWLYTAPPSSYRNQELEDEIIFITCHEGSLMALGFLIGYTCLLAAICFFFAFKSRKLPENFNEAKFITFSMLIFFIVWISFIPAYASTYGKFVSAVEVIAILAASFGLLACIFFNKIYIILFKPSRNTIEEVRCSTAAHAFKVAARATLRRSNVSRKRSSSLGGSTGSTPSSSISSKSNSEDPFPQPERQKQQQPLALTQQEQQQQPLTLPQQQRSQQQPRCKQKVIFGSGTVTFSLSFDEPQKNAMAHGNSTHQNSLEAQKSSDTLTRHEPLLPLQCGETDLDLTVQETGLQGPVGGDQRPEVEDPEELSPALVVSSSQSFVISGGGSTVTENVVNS
- assay method text: increases in [Ca^2+ ]i in HEK-293 cells expressing the human calcium receptor (fura-2 loaded HEK 293/pHuPCaR4.0 cells), % activity
- Format: cell-based
- condition label: 330 ng/mL
For each record, write down the corresponding % activity.
Numeric answer only, unit % assumed.

Incoming: # get_value(readout='% activity', item= COc1cccc([C@@H](C)NC[C@@H](C)c2ccc(CC(C)C)cc2)c1 [Compound 13Y] )
Outgoing: 47

Incoming: Same again, this time with CCCOc1cccc([C@@H](C)NCCCc2ccccc2Cl)c1 [Compound 21S]
Outgoing: 131

Incoming: Same again, this time with CC(C)c1ccc(CN[C@H](C)c2cccc3ccccc23)cc1.Cl [Compound 11X]
Outgoing: 100

Incoming: Same again, this time with C[C@@H](NCc1ccc(Cl)cc1)c1cccc2ccccc12 [Compound 13O]
Outgoing: 115

Incoming: Same again, this time with COc1ccc([C@@H](C)N[C@H](C)c2cccc(OC)c2)cc1 [Compound 16L]
Outgoing: 138
